# System: Mycobacterium smegmatis (mc^2155)
# EXPERIMENTAL_DETAILS: Antimycobacterial assay, turbidometric MIC (OD 600 nm)
# Type: cell-based
# STUDY_CONDITIONS: Mycolicibacterium smegmatis, MC^2155; lowest concentration with 90% growth inhibition, 32 hours; read-out: M. smeg MIC
What MIC was measured for each of the following?
# answer = value followed by unit

{"MOLECULE": "Cc1ccc(-c2nc3ccccc3s2)cc1", "MEASURED_TARGET": "Mycobacterium smegmatis (mc^2155)", "MIC": "26.8 µM"}
{"MOLECULE": "COc1cc2c(cc1NC(=O)N1CCCCC1c1cccnc1)oc1ccccc12 (stereo not shown)", "MEASURED_TARGET": "Mycobacterium smegmatis (mc^2155)", "MIC": "42 µM"}
{"MOLECULE": "O=C(CSc1nnc(COc2ccc(F)cc2)o1)OC1CCCCC1", "MEASURED_TARGET": "Mycobacterium smegmatis (mc^2155)", "MIC": "52 µM"}

Need MIC of Cc1nc(C)c(C(=O)N(c2cccc(C)c2C)C(C(=O)NC2CCCCC2)c2ccccc2)s1 (stereo not shown) , thanks.
25.1 µM
